Each entry below lists one item and its recorded melting point value.

{"molecule": "CCOc1cc(C(CS(C)(=O)=O)N2C(=O)c3cccc(NC(=O)CN)c3C2=O)ccc1OC (centres unmarked)", "melting point": "111 to 112 °C"}
{"molecule": "CCOc1cc(C(CC(=O)CC)N2C(=O)c3cccc(NC(C)=O)c3C2=O)ccc1OC (centres unmarked)", "melting point": "137 to 139 °C"}
{"molecule": "CCOc1cc(C(CS(C)(=O)=O)N2C(=O)c3cccc(CNC(C)=O)c3C2=O)ccc1OC (centres unmarked)", "melting point": "84 to 86 °C"}
{"molecule": "CCOc1cc([C@@H](CC(=O)N(C)C)N2Cc3cccc(NC(=O)C4CC4)c3C2=O)ccc1OC", "melting point": "92 to 94 °C"}
{"molecule": "CCOc1cc(C(CS(C)(=O)=O)N2C(=O)c3ccc([N+](=O)[O-])c([N+](=O)[O-])c3C2=O)ccc1OC (centres unmarked)", "melting point": "122 to 124 °C"}
{"molecule": "CCOc1cc([C@@H](CC(=O)N(C)C)N2Cc3cccc(NC(C)=O)c3C2=O)ccc1OC", "melting point": "88 to 90 °C"}
{"molecule": "CCOc1cc([C@@H](CS(C)(=O)=O)N2C(=O)c3cccc(NC(=O)C4CC4)c3C2=O)ccc1OC", "melting point": "140 to 141 °C"}
{"molecule": "COc1ccc(C(CC(C)=O)N2C(=O)c3cccc(N(S(C)(=O)=O)S(C)(=O)=O)c3C2=O)cc1OC (centres unmarked)", "melting point": "194 to 196 °C"}

----------
Each entry below lists one item and its recorded melting point value.

{"compound": "CCOc1cc(C(CS(C)(=O)=O)N2C(=O)c3cccc(NC(=O)C4CC4)c3C2=O)ccc1OC (stereo not shown) [Example 7]", "melting point": "153 to 155 °C"}
{"compound": "CCOc1cc(C(CC(C)O)N2C(=O)c3cccc(NC(C)=O)c3C2=O)ccc1OC (stereo not shown) [Example 24]", "melting point": "132 to 134 °C"}
{"compound": "CCOc1cc(C(CS(C)(=O)=O)N2C(=O)c3cccc(NC(=O)C(F)(F)F)c3C2=O)ccc1OC (stereo not shown) [Example 11]", "melting point": "130 to 132 °C"}
{"compound": "CCOc1cc(C(CS(C)(=O)=O)N2Cc3cccc(NC(=O)CN(C)C)c3C2=O)ccc1OC.Cl (stereo not shown)", "melting point": "145 to 147 °C"}
{"compound": "CCOc1cc(C(CS(C)(=O)=O)N2C(=O)c3cccc(NC(=O)C4CCCC4)c3C2=O)ccc1OC (stereo not shown) [Example 45]", "melting point": "134 to 136 °C"}
{"compound": "CCOc1cc(C(CS(C)(=O)=O)N2C(=O)c3cccc(NC(=O)CCl)c3C2=O)ccc1OC (stereo not shown) [Example 8]", "melting point": "166 to 168 °C"}
{"compound": "COc1ccc(C(CC(C)=O)N2C(=O)c3cccc(NC(C)=O)c3C2=O)cc1OC1CCCC1 (stereo not shown) [Example 76]", "melting point": "145 to 147 °C"}
{"compound": "CCOc1cc(C(CC(=O)N(C)C)N2C(=O)c3cccc(NC(=O)CN(C)C)c3C2=O)ccc1OC.Cl (stereo not shown)", "melting point": "92 to 94 °C"}
{"compound": "CCOc1cc(C(CS(C)(=O)=O)N2C(=O)c3cccc(NC(=O)C(C)N(C)C)c3C2=O)ccc1OC.Cl (stereo not shown)", "melting point": "138 to 140 °C"}
{"compound": "CCOc1cc(C(CS(C)(=O)=O)N2C(=O)c3cccc(CONC=O)c3C2=O)ccc1OC (stereo not shown) [Example 12]", "melting point": "178 to 180 °C"}
{"compound": "CCOc1cc([C@H](CS(C)(=O)=O)N2C(=O)c3cccc(NC(=O)CN(C)C)c3C2=O)ccc1OC.Cl", "melting point": "192 to 194 °C"}
{"compound": "CCOc1cc(C(CC(C)=O)N2C(=O)c3cccc(NC(C)=O)c3C2=O)ccc1OC (stereo not shown) [Example 25]", "melting point": "128 to 129 °C"}
{"compound": "COc1ccc(C(CS(C)(=O)=O)N2C(=O)c3cccc(NC(=O)CN(C)C)c3C2=O)cc1OC.Cl (stereo not shown)", "melting point": "178 to 180 °C"}
{"compound": "CCOc1cc([C@@H](CC(=O)N(C)C)N2C(=O)c3cccc(NC(=O)CN(C)C)c3C2=O)ccc1OC.Cl", "melting point": "122 to 124 °C"}
{"compound": "COc1ccc(C(CS(C)(=O)=O)N2C(=O)c3cccc(NC(=O)C4CC4)c3C2=O)cc1OC (stereo not shown) [Example 54]", "melting point": "130 to 132 °C"}
{"compound": "CCOc1cc(C(CS(C)(=O)=O)N2C(=O)c3ccc(N)c(N)c3C2=O)ccc1OC (stereo not shown) [Example 2]", "melting point": "205 to 207 °C"}
